Every entry's value here was drawn from patent US20200239555A1.

target: T1, biotinylated native human ApoC3 (human, UniProt P02656 21-99, biotinylated (site not stated)); assay: SPR, IgG1 over biotinylated ApoC3 on SA chip, pH 5.5
T1 construct: also called biotinylated human ApoC3
T1 sequence (P02656 21-99): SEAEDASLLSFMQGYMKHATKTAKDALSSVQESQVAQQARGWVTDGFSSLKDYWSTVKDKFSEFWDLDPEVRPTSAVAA
ASSAY METRIC: Ka (M⁻¹)
Quick reminder: number only, in M⁻¹, skip the unit.

| BINDER | VALUE REPORTED |
| --- | --- |
| 5E5VH5_VL8 human IgG1 (antibody, V domains shown, Tested as human IgG1; the tested lot is not tied to them in words) VH: QLQLVESGGGLVQPGGSLRLSCAASGFTFGTYSMRWVRQVPRKALEWVSSIHTDGGGTAYRDSVKGRFTISRDNAKNTLYLQMNNLKPEDTAIYYCVIAGYSDWGQGTQVTVSS VL: ATMLTQSPGSLSVVPGESASISCKTSQGLVHSDGKTYFYWFLQKPGQSPQQLIYQVSNRASGVPDRFTGSGSGTDFTLKISGVKAEDAGVYYCAHGTYYPHTFGSGTRLEIK | 8.74e+07 |
| mAb9 (antibody, IgG1, V domains shown, Produced as full length IgG1 (kappa) in ExpiCHO-S cells; also called humanized anti-ApoC3 antibody mAb9) VH: QLVESGGGLVQPGGSLRLSCAASGFTFSTYSMRWVRQAPGKGLEWVSSIHTDAGGTAYRDSVKGRFTISRDNAKNTLYLQMNNLRAEDTAVYYCVIAGYSDWGQGTLVTVSS VL: DIVMTQSPLSLSVTPGEPASISCKTSQGLVHSDGKTYFYWFLQKPGQSPQQLIYQVSNRASGVPDRFSGSGSGTDFTLKISRVEAEDVGVYYCAHGTYYPHTFGQGTRLEIK | 1.32e+09 |
| mAb5 (antibody, IgG1, V domains shown, Produced as full length IgG1 (kappa) in ExpiCHO-S cells; also called humanized anti-ApoC3 antibody mAb5) VH: QLVESGGGLVQPGGSLRLSCAASGFTFGTYSMRWVRQAPGKGLEWVSSIHTEGGGTAYRDSVKGRFTISRDNAKNTLYLQMNSLRAEDTAVYYCVIAGYSDWGQGTLVTVSS VL: DIVMTQSPLSLPVTPGESASISCKTSQGLVHSDGKTYFYWFLQKPGQSPQQLIYQVSNRASGVPDRFTGSGSGTDFTLKISRVKAEDAGVYYCAHGTYYPHTFGQGTRLEIK | 2.9e+09 |

What value of Ka has been recorded for this entry: mAb6 (antibody, IgG1, V domains shown, Produced as full length IgG1 (kappa) in ExpiCHO-S cells; also called humanized anti-ApoC3 antibody mAb6) VH: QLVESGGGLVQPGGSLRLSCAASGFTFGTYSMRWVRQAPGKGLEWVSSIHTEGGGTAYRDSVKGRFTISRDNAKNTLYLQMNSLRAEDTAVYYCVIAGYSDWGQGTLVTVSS VL: DIVMTQSPLSLPVTPGESASISCKTSQGLVHSDGKTYFYWFLQKPGQSPQQLIYQVSNRASGVPDRFSGSGSGTDFTLKISRVKAEDAGVYYCAHGTYYPHTFGQGTRLEIK
2.88e+09

Look up Ka: mAb18 (antibody, IgG1, V domains shown, Produced as full length IgG1 (kappa) in ExpiCHO-S cells; also called humanized anti-ApoC3 antibody mAb18) VH: QLVESGGGLVQPGGSLRLSCAASGFTFSTYSMRWVRQAPGKGLEWVSSIHTEAGGTAYRDSVKGRFTISRDNAKNTLYLQMNNLRAEDTAVYYCVIAGYSDWGQGTLVTVSS VL: DIVMTQSPLSLPVTPGEPASISCKTSQGLVHSGGKTYFYWFLQKPGQSPQQLIYQVSNRASGVPDRFTGSGSGTDFTLKISRVEAEDAGVYYCAHGTYYPHTFGQGTRLEIK
1.16e+08
